Molecular target: aggrecanase-1 (Homo sapiens, UniProt O75173)
Sequence (O75173 213-837): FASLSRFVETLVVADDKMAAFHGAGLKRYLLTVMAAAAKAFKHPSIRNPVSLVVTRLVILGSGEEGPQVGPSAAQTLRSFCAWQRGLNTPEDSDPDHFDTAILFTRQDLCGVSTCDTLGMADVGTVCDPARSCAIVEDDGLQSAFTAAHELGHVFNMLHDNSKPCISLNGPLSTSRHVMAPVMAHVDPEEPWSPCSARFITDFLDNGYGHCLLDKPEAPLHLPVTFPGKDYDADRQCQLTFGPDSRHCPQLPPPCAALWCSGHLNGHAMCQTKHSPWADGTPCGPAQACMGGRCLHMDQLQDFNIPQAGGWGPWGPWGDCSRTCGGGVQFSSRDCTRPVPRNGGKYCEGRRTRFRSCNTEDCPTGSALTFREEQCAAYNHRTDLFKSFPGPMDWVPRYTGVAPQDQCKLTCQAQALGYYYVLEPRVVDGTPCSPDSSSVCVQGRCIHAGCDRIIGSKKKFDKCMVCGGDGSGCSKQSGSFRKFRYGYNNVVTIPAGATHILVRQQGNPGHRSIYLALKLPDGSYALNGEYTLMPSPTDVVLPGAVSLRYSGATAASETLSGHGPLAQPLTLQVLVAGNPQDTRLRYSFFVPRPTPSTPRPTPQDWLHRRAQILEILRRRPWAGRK
Assay: Aggrecanase-1 inhibitory action (Particle Assay, GAG release from aggrecan-containing polyacrylamide particles)
Assay type: biochemical
Details: Experimental Example 1; read-out: IC50 AG1
outcome measure: IC50

Sample records with IC50:
compound	measurement target	outcome measure	result
CC1[C@H](c2ccccc2)[C@]1(NS(=O)(=O)N1CC=C(c2ccc(Cl)cc2)CC1)C(=O)O (stereo partly drawn)	aggrecanase-1 (Homo sapiens, UniProt O75173)	IC50	< 100 nM
Cc1cnc(-c2ccc(S(=O)(=O)N[C@@]3(C(=O)O)C[C@]3(C)c3ccccc3)s2)o1	aggrecanase-1 (Homo sapiens, UniProt O75173)	IC50	≥ 1000 nM
NCC1(c2ccccc2)CC1(NS(=O)(=O)c1ccc(-c2ccc(Cl)cc2)s1)C(=O)O (stereo not drawn)	aggrecanase-1 (Homo sapiens, UniProt O75173)	IC50	≥ 1000 nM
CN(C)C(=O)OCC1(c2ccccc2)CC1(NS(=O)(=O)c1ccc(-c2cc(C(F)(F)F)on2)s1)C(=O)O (stereo not drawn)	aggrecanase-1 (Homo sapiens, UniProt O75173)	IC50	< 1000 nM
COc1ccc(-c2ccc(S(=O)(=O)N[C@@]3(C(=O)O)C[C@]3(C)c3ccccc3)s2)cc1Cl	aggrecanase-1 (Homo sapiens, UniProt O75173)	IC50	≥ 1000 nM

Supply IC50 value. Item: O=C(O)C1(NS(=O)(=O)c2ccc(OCc3ccc(Cl)cc3Cl)cc2)C2Cc3ccccc3C21 (stereo not drawn) ≥ 1000 nM

---

Reported values of IC50 for individual entries
Target: Recombinant Human MMP-13 (Homo sapiens, UniProt P45452)
Construct: purchased R&D systems 511-MM
Experiment: MMP-13 inhibitory activity (MMP-13 specific fluorescent substrate with quencher)
Type: biochemical
Conditions: Experimental Example 3; read-out: IC50 MMP13
Protocol: Inhibitory activity of tested compounds on MMP-13 was measured using MMP-13 specific fluorescent substrate with quencher. The enzyme and substrate were diluted with Tris-HCl buffer, and test compounds were diluted with dimethyl sulfoxide (DMSO). Test compounds and the enzyme (Recombinant Human MMP-13: R&D systems, 511-MM) were added into 96-well plate. The reaction was initiated by adding synthetic substrate (7-MCA-Pro-CHA-Gly-NVal-His-Ala-DPA: enzyme systems products, Met-06) into the plate. […]

A selection of reference data follows.
compound	IC50
COc1ccccc1C1(C)CC1(NS(=O)(=O)c1ccc(-c2cc(C(F)(F)F)on2)s1)C(=O)O (stereo not shown) [Example 2-613]	≥ 1000 nM
O=C(NO)C1(NS(=O)(=O)c2ccc(-c3ccc(Cl)cc3)s2)C2CCc3ccccc3C21 (stereo not shown) [Example 2-364]	< 100 nM
C[C@]1(c2ccccc2)C[C@@]1(NS(=O)(=O)c1ccc2c(c1)Cc1cc(Cl)ccc1-2)C(=O)O [Example 2-568]	< 100 nM
CN1CCN(C(=O)CCc2ccc([C@H]3C[C@@]3(NS(=O)(=O)c3ccc(-c4cc(C(F)(F)F)on4)s3)C(=O)O)cc2)CC1 [Example 2-280]	< 100 nM
CN(C)C(=O)NCC1(c2ccccc2)CC1(NS(=O)(=O)c1ccc(-c2ccc(Cl)cc2)s1)C(=O)O (stereo not shown) [Example 2-378]	< 1000 nM

Quote IC50 reported for CC1[C@H](c2ccccc2)[C@]1(NS(=O)(=O)c1ccc(-c2ccc(Cl)c(N)c2)s1)C(=O)O (stereo partly shown) [Example 2-496] please. < 100 nM

Answer with reported IC50 of CC1[C@H](c2ccccc2)[C@]1(NS(=O)(=O)c1ccc(Br)s1)C(=O)O (stereo partly shown) [Example 2-427] ≥ 1000 nM

---

target: MMP-1 (Homo sapiens); test: MMP-1 inhibitory action (Type I collagen Activity Measurement kit, FITC-labeled collagen type I); type: biochemical; details: Experimental Example 2; read-out: IC50 MMP1
Sequence (P03956 100-469, species assumed): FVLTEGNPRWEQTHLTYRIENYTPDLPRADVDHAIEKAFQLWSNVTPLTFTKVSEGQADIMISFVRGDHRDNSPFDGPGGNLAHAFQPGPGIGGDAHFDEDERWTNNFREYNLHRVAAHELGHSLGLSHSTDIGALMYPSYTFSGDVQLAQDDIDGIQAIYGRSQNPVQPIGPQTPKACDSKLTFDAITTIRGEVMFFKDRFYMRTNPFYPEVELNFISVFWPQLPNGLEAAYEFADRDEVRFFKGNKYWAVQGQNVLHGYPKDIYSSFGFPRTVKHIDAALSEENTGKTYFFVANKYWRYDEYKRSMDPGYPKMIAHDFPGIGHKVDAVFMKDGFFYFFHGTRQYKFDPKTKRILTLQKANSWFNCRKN
pIC50: −log10 of the molar value.
outcome measure: pIC50

compound	measurement target	result
O=C(O)[C@]1(NS(=O)(=O)c2ccc(-c3ccc([N+](=O)[O-])cc3)s2)C[C@@H]1c1ccccc1	MMP-1 (Homo sapiens)	≤ 6.00

Fill in reported pIC50 for this entry: CC1[C@H](c2ccccc2)[C@]1(NS(=O)(=O)c1ccc(-c2nc3ccccc3[nH]2)s1)C(=O)O (stereo partly shown) ≤ 6.00

Specify measured pIC50 for O=C(NO)C1(NS(=O)(=O)c2ccc(-c3ccc(Cl)cc3)s2)C2CCCc3ccccc3C21 (stereo not shown) . ≤ 5.00

Consider the compound CC1[C@H](c2ccccc2)[C@]1(NS(=O)(=O)N1CCn2c(nc3cc(Cl)ccc32)C1)C(=O)O (stereo partly shown) . State its measured pIC50. ≤ 5.00

Return value of pIC50 for input CN1CCN(CC2(c3ccccc3)CC2(NS(=O)(=O)c2ccc(-c3cc(C(F)(F)F)on3)s2)C(=O)O)CC1 (stereo not shown) , no commentary. ≤ 6.00

Return the recorded pIC50 value; entry: CC1[C@H](c2ccccc2)[C@]1(NS(=O)(=O)N1CCN(c2ccc(Cl)cc2)C(=O)C1)C(=O)O (stereo partly shown) ≤ 6.00

Please supply the value of reported pIC50 for the item CN(C)C(=O)OCC1(c2ccccc2)CC1(NS(=O)(=O)c1ccc(-c2cc(C(F)(F)F)on2)s1)C(=O)O (stereo not shown) ≤ 6.00

---

molecular target: Recombinant Human MMP-13 (Homo sapiens); construct: purchased R&D systems 511-MM; experiment: MMP-13 inhibitory activity (MMP-13 specific fluorescent substrate with quencher); type: biochemical; conditions: Recombinant Human MMP-13, fluorescent substrate, 25° C. for 1 h; read-out: IC50 MMP13 (Experimental Example 3)
pIC50: −log10 of the molar value.
# key: entry, value: pIC50

compound	pIC50
O=C(O)C1(NS(=O)(=O)N2CCN(c3ccc(Cl)c(C(F)(F)F)c3)CC2)CC1c1ccccc1 (stereo not drawn)	≤ 6.00
O=C(O)C1(NS(=O)(=O)c2ccc(-c3ccc(Cl)cc3)s2)CC1c1cccc(OCCO)c1 (stereo not drawn)	> 6.00
O=C(O)[C@]1(NS(=O)(=O)c2ccc(-c3cc(CF)sn3)s2)C[C@@H]1c1ccccc1	> 7.00
O=C(O)c1cccc(C2CC2(NS(=O)(=O)c2ccc(-c3ccc(Cl)cc3)s2)C(=O)O)c1 (stereo not drawn)	> 6.00
O=C(O)C1(NS(=O)(=O)c2ccc(-c3cc(C(F)(F)F)on3)s2)CC1(CCCO)c1ccccc1 (stereo not drawn)	> 6.00

Supply reported pIC50 belonging to this compound: O=C(O)C1(NS(=O)(=O)c2ccc(-c3cc(C(F)(F)F)on3)s2)CC1c1ccccc1 (stereo not drawn) > 7.00

Please look at this compound and report its pIC50: `Nc1cccc([C@H]2C[C@@]2(NS(=O)(=O)c2ccc(-c3ccc(Cl)cc3)s2)C(=O)O)c1` > 7.00

In one line, give reported pIC50 of the entry `O=C(O)[C@]1(NS(=O)(=O)c2ccc(-c3ccc(Cl)nc3)s2)C[C@@H]1c1ccccc1` . > 6.00

Tell me pIC50 reported for `Cc1ccc(-c2ccc(S(=O)(=O)N[C@@]3(C(=O)O)C[C@@H]3c3ccccc3)s2)s1` > 7.00

Assign pIC50 to the following record: `O=C(O)[C@]1(NS(=O)(=O)c2ccc3c(c2)Cc2cc(F)ccc2-3)C[C@@H]1c1ccccc1` > 7.00

Hello, please tell me recorded pIC50 for this one: Cc1ccc(-c2ccc(S(=O)(=O)NC3(C(=O)O)CC3c3ccccc3)s2)cc1 (stereo not drawn) > 7.00

For the compound `Cc1nc(-c2ccc(S(=O)(=O)N[C@@]3(C(=O)O)C[C@@H]3c3ccccc3)s2)no1` , report pIC50. ≤ 6.00

Provenance of the data: patent US20080261994A1
